- system_tested: His-hSHIP1 enzyme (Homo sapiens, UniProt Q92835)
- Sequence (Q92835 whole entry): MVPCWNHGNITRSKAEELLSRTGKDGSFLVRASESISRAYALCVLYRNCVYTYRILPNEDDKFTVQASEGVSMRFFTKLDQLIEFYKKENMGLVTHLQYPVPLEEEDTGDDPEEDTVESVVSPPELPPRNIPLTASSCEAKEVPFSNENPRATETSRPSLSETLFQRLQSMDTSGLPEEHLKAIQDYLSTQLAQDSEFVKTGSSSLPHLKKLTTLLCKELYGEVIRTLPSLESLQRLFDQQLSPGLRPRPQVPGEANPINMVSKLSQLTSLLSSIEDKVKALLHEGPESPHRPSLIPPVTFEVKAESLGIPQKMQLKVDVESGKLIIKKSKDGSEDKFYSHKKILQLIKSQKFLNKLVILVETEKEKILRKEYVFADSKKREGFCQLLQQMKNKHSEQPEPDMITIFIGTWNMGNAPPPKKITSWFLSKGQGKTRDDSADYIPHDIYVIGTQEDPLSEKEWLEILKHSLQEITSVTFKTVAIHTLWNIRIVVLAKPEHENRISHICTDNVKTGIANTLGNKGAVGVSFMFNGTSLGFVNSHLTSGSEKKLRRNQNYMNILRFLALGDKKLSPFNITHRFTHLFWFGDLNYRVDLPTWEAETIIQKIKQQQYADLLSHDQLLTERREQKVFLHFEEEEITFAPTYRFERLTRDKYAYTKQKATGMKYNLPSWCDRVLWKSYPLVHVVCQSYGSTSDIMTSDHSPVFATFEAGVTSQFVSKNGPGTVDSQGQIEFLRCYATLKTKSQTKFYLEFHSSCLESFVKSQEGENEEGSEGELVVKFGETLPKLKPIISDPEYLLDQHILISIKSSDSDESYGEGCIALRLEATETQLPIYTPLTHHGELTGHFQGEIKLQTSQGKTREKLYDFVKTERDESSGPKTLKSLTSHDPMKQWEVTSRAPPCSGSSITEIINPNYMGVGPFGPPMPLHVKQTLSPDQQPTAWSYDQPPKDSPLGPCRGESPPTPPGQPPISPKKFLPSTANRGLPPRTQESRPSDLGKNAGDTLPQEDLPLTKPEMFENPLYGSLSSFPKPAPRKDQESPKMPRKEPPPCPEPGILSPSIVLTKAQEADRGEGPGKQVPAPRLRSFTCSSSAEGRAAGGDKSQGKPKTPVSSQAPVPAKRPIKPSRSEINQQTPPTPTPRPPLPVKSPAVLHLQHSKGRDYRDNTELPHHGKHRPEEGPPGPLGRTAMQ
- experiment_description: His-hSHIP1 phosphatase activity assay (IP4 substrate, Biomol Green)
- Assay type: biochemical
- cond: percentage increase relative to background; concentrations ≦300 μM
- Description: Test compounds were dissolved in 95% ethanol to form stock solutions. Before screening, the stock solutions were diluted with Phosphatase Assay Buffer (20 mM Tris-HCL, 10 mM MgCl2 pH 7.5, 0.02% Tween 20) to form working assay solutions that contained 10% ethanol. […] Percent (%) activation in Table 2 is expressed as a percentage increase relative to background. Scoring is expressed as follows: + (<50%); ++ (≧50% but <65%); +++ (≧65%).
readout: Scoring: percent (%) activation of His-hSHIP1 enzyme

CNC(=O)c1cc2c(cc1O)S(=O)(=O)C[C@@H]1[C@@]3(C)CCCC(C)(C)[C@@H]3CC[C@@]21C : + (<50%)
CC1(C)CCC[C@]2(C)[C@H]3CS(=O)(=O)c4cc(C(=O)O)cc(C(=O)O)c4[C@]3(C)CC[C@@H]12 : + (<50%)
CC1(C)CCC[C@]2(C)[C@H]3COc4cc(O)cc(O)c4[C@]3(C)CC[C@@H]12 : + (<50%)

---

- system_tested: His-hSHIP1 enzyme (Homo sapiens, UniProt Q92835)
- experiment_description: His-hSHIP1 phosphatase activity assay (IP4 substrate, Biomol Green)
- Assay type: biochemical
- cond: percentage increase relative to background; concentrations ≦300 μM
readout: Scoring: percent (%) activation of His-hSHIP1 enzyme

Worked cases, Scoring: percent (%) activation of His-hSHIP1 enzyme given:
CC1(C)CCC[C@]2(C)[C@H]3CS(=O)(=O)c4cc(O)cc(C(=O)NCC(=O)O)c4[C@]3(C)CC[C@@H]12 : + (<50%)
CONC(=O)c1cc(O)c2c(c1)S(=O)(=O)C[C@@H]1[C@@]3(C)CCCC(C)(C)[C@@H]3CC[C@@]21C : + (<50%)
CC1(C)CCC[C@]2(C)[C@H]3CS(=O)(=O)c4cc(O)cc(C#N)c4[C@]3(C)CC[C@@H]12 : + (<50%)
COc1cc(O)c2c(c1)SC[C@@H]1[C@@]3(C)CCCC(C)(C)[C@@H]3CC[C@@]21C : ++ (≧50% but <65%)
COc1cc(O)cc2c1[C@]1(C)CC[C@H]3C(C)(C)CCC[C@]3(C)[C@H]1CS2 : ++ (≧50% but <65%)

Exercise: What value of Scoring: percent (%) activation of His-hSHIP1 enzyme has been recorded for this entry: `CC1(C)CCC[C@]2(C)[C@H]3CS(=O)(=O)c4cc(C(=O)NCC(=O)O)cc(O)c4[C@]3(C)CC[C@@H]12`
Solution: + (<50%)

Exercise: Recorded Scoring: percent (%) activation of His-hSHIP1 enzyme for `CC1(C)CCC[C@]2(C)[C@H]3CSc4cc(O)cc(C#N)c4[C@]3(C)CC[C@@H]12` , please?
Solution: + (<50%)

Exercise: Please look up its Scoring: percent (%) activation of His-hSHIP1 enzyme: `CNC(=O)c1cc(C(=O)NC)c2c(c1)S(=O)(=O)C[C@@H]1[C@@]3(C)CCCC(C)(C)[C@@H]3CC[C@@]21C`
Solution: + (<50%)

Exercise: Which Scoring: percent (%) activation of His-hSHIP1 enzyme reading was recorded for the compound `CC1(C)CCC[C@]2(C)[C@H]3CS(=O)(=O)c4cc(O)cc(C(=O)N5CCOCC5)c4[C@]3(C)CC[C@@H]12` ?
Solution: + (<50%)

Exercise: Return reported Scoring: percent (%) activation of His-hSHIP1 enzyme; argument: `CNC(=O)c1cc(O)cc2c1[C@]1(C)CC[C@H]3C(C)(C)CCC[C@]3(C)[C@H]1CS2(=O)=O`
Solution: + (<50%)

Exercise: For CC1(C)CCC[C@]2(C)[C@H]3C[S+]([O-])c4cc(O)cc(O)c4[C@]3(C)CC[C@@H]12 (stereo partly drawn) , what is its reported Scoring: percent (%) activation of His-hSHIP1 enzyme?
Solution: ++ (≧50% but <65%)

Exercise: Request the reported Scoring: percent (%) activation of His-hSHIP1 enzyme associated with `COc1cc(C)cc2c1[C@]1(C)CC[C@H]3C(C)(C)CCC[C@]3(C)[C@H]1CS2`
Solution: + (<50%)

Exercise: Please look up its Scoring: percent (%) activation of His-hSHIP1 enzyme: `CC1(C)CCC[C@]2(C)[C@H]3CS(=O)(=O)c4cc(OCC(=O)O)cc(O)c4[C@]3(C)CC[C@@H]12`
Solution: + (<50%)

Exercise: What value of Scoring: percent (%) activation of His-hSHIP1 enzyme has been recorded for this entry: `CC1(C)CCC[C@]2(C)[C@H]3COc4c(O)cc(O)cc4[C@]3(C)CC[C@@H]12`
Solution: + (<50%)

Exercise: Reported Scoring: percent (%) activation of His-hSHIP1 enzyme for `CC1(C)CCC[C@]2(C)[C@H]3CS(=O)(=O)c4cc(C(=O)N5CCC(C(=O)O)CC5)cc(O)c4[C@]3(C)CC[C@@H]12` : what is it?
Solution: + (<50%)
